- target under test: Cav1.2 (voltage-dependent L-type calcium channel subunit alpha-1C) (Rattus norvegicus)
- Sequence (P22002 whole entry): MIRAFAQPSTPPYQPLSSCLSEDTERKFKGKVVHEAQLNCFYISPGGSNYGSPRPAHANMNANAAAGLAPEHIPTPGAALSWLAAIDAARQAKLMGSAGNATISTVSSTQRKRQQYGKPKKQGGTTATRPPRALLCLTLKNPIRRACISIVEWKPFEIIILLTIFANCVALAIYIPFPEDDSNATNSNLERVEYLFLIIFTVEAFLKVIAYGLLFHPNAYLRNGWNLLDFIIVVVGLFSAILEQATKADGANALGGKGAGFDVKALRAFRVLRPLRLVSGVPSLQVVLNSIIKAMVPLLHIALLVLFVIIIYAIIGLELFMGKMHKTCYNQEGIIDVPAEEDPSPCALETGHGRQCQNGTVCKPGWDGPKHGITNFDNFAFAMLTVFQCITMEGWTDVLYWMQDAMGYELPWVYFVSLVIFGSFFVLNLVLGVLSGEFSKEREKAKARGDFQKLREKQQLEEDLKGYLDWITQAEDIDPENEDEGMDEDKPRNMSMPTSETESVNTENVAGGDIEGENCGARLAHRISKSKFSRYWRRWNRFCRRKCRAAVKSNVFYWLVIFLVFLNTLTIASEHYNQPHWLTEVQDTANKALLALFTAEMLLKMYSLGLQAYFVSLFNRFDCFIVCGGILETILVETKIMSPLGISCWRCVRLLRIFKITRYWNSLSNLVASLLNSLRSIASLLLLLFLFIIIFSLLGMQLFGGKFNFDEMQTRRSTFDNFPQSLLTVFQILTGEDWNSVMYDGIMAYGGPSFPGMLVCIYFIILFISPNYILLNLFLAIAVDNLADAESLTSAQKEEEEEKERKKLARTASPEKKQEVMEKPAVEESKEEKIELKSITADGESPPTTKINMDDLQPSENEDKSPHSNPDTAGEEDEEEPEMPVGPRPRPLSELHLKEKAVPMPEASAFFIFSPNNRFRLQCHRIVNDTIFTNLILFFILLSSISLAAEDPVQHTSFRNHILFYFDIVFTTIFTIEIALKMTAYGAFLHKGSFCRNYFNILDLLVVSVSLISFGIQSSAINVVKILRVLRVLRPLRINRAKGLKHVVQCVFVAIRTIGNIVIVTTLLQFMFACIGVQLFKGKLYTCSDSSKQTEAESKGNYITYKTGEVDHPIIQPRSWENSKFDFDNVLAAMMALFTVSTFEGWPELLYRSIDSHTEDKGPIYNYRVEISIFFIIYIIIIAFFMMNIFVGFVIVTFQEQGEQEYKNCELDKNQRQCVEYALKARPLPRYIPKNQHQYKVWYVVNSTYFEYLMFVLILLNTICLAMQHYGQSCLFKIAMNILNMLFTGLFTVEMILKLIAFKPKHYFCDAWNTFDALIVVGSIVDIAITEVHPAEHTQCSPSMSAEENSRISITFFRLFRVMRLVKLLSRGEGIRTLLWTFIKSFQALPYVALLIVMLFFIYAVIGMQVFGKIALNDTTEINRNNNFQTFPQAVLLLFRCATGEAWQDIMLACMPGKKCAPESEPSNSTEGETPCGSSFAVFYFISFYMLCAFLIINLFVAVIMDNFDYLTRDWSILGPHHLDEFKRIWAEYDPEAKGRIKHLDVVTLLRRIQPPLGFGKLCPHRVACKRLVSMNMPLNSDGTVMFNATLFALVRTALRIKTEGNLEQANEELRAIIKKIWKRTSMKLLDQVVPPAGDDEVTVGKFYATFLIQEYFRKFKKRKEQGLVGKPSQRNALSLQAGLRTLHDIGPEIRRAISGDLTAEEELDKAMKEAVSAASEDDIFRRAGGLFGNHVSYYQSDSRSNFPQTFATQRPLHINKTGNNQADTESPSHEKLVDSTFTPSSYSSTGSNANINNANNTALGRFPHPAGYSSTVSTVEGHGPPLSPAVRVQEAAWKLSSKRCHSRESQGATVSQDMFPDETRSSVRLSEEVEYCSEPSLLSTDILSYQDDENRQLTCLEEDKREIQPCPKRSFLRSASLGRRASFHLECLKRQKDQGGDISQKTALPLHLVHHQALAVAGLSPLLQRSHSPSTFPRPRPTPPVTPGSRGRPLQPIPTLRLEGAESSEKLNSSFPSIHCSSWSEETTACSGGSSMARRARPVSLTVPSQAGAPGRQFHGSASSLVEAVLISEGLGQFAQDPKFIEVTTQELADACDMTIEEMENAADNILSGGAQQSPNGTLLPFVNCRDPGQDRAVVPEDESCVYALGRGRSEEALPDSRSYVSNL
- assay remarks: Inhibition of rat Cav1.2 expressed in human tsA-201 cells co-expressing Cavbeta1b/Cavalpha2delta1 assessed as tonic block at 10 uM at holding potential of -90 mV by whole cell patch clamp method relative to control
- Type: cell-based
quantity kind: inhibition at 10 µM

Example results:
# molecule, result
rows = [
    ("CCOC(=O)C1=C(C)NC(=O)N(CCC(=O)OCc2cn(CC(=O)c3ccccc3)nn2)C1c1cccc([N+](=O)[O-])c1 (stereo not given)", "< 50%"),
    ("CCOC(=O)CCN1C(=O)NC(C)=C(C(=O)OCC)C1c1cccc([N+](=O)[O-])c1 (stereo not given)", "> 75%"),
    ("CCOC(=O)C1=C(C)NC(=O)N(CCC(=O)OC)C1c1cccc([N+](=O)[O-])c1 (stereo not given)", "< 50%"),
    ("C#CCOC(=O)CCN1C(=O)NC(C)=C(C(=O)OCC)C1c1cccc([N+](=O)[O-])c1 (stereo not given)", "50%"),
]

Asked: // fetch Cav1.2 (voltage-dependent L-type calcium channel subunit alpha-1C) (Rattus norvegicus) inhibition at 10 µM for CCOC(=O)C1=C(C)NC(=O)N(CCC(=O)NN)C1c1cccc([N+](=O)[O-])c1 (stereo not given)
Given back: < 50%

---

- target under test: Voltage-dependent T-type calcium channel subunit alpha-1H (Homo sapiens)
- assay remarks: Inhibition of human Cav3.2 alpha1 expressed in human tsA-201 cells assessed as tonic block at 10 uM at holding potential of -110 mV by whole cell patch clamp method
- Assay type: cell-based
Active and inactive are the calls of the source. The calls are words filed in the database; no cut-off is given here.
Classes to choose from: active, inactive

# compound, group label
rows = [
    ("C#CCOC(=O)CCN1C(=O)NC(C)=C(C(=O)OCC)C1c1cccc([N+](=O)[O-])c1 (centres undefined)", "active"),
    ("CCOC(=O)C1=C(C)NC(=O)N(CCC(=O)NCC(c2ccccc2)c2ccccc2)C1c1cccc([N+](=O)[O-])c1 (centres undefined)", "inactive"),
]

Asked: // param item: CCOC(=O)CCN1C(=O)NC(C)=C(C(=O)OCC)C1c1cccc([N+](=O)[O-])c1 (centres undefined) ; yields the recorded call
Given back: active

Asked: // param item: CCOC(=O)C1=C(C)NC(=O)N(CCC(=O)OC(C)C)C1c1cccc([N+](=O)[O-])c1 (centres undefined) ; yields the recorded call
Given back: inactive

Asked: // param item: CCOC(=O)C1=C(C)NC(=O)N(CCC(=O)NN)C1c1cccc([N+](=O)[O-])c1 (centres undefined) ; yields the recorded call
Given back: inactive

Asked: // param item: CCOC(=O)C1=C(C)NC(=O)N(CCC(=O)OCc2cn(Cc3ccccc3)nn2)C1c1cccc([N+](=O)[O-])c1 (centres undefined) ; yields the recorded call
Given back: active

Asked: // param item: CCOC(=O)C1=C(C)NC(=O)N(CCC(N)=O)C1c1cccc([N+](=O)[O-])c1 (centres undefined) ; yields the recorded call
Given back: inactive

Asked: // param item: CCOC(=O)C1=C(C)NC(=O)N(CCC#N)C1c1cccc([N+](=O)[O-])c1 (centres undefined) ; yields the recorded call
Given back: inactive

---

- target under test: Voltage-dependent T-type calcium channel subunit alpha-1H (Homo sapiens)
- assay remarks: Inhibition of human Cav3.2 alpha1 expressed in human tsA-201 cells assessed as tonic block at 10 uM at holding potential of -110 mV by whole cell patch clamp method
- Format: cell-based
Active and inactive are the calls of the source. No cut-off for these calls is given here.
Classes to choose from: yes (active), no (inactive)

Study these solved cases before continuing.
# compound, target under test, group label
rows = [
    ("CCOC(=O)C1=C(C)NC(=O)N(CCC(=O)NCc2ccccc2)C1c1cccc([N+](=O)[O-])c1 (stereo unspecified)", "Voltage-dependent T-type calcium channel subunit alpha-1H (Homo sapiens)", "no"),
    ("CCOC(=O)C1=C(C)NC(=O)N(CCC(=O)OC)C1c1cccc([N+](=O)[O-])c1 (stereo unspecified)", "Voltage-dependent T-type calcium channel subunit alpha-1H (Homo sapiens)", "no"),
    ("CCOC(=O)C1=C(C)NC(=O)N(CCC(=O)N(C)Cc2ccccc2)C1c1cccc([N+](=O)[O-])c1 (stereo unspecified)", "Voltage-dependent T-type calcium channel subunit alpha-1H (Homo sapiens)", "no"),
    ("CCOC(=O)C1=C(C)NC(=O)N(CCC(=O)OCCOC)C1c1cccc([N+](=O)[O-])c1 (stereo unspecified)", "Voltage-dependent T-type calcium channel subunit alpha-1H (Homo sapiens)", "yes"),
    ("CCOC(=O)C1=C(C)NC(=O)N(CCC(=O)O)C1c1cccc([N+](=O)[O-])c1 (stereo unspecified)", "Voltage-dependent T-type calcium channel subunit alpha-1H (Homo sapiens)", "no"),
]

Asked: // param item: CCOC(=O)C1=C(C)NC(=O)N(CCC(=O)OCc2cn(CC(=O)c3ccccc3)nn2)C1c1cccc([N+](=O)[O-])c1 (stereo unspecified) ; yields the recorded call
Given back: yes
